Viability d12 (relative viability) listing for selected compounds.
# System: E. multilocularis metacestode vesicles
# PROCEDURE_SUMMARY: Metacestode vesicle viability assay (ATP, CellTiter-Glo)
# Format: cell-based, Echinococcus multilocularis
# DETAILS: overview screen, 10 μM, singlets, 12 days, relative to DMSO control
READOUT: Viability d12 (relative viability) (%)

COMPOUND	TARGET_UNDER_TEST	NUMBER
NC1C2CC3CC(C2)CC1C3 (stereo not drawn)	E. multilocularis metacestode vesicles	111.504
C[N+]1(C)CCCC(OC(=O)C(O)(c2ccccc2)c2ccccc2)C1 (stereo not drawn)	E. multilocularis metacestode vesicles	80.9524
CC(=O)Nc1cc(NS(=O)(=O)c2ccc(Cl)cc2)cc2c(Cl)n[nH]c12	E. multilocularis metacestode vesicles	88.2086
Nc1cnn(C2OC(CO)C(O)C2O)c(=O)n1 (stereo not drawn)	E. multilocularis metacestode vesicles	84.6299
CCN(CC)S(=O)(=O)c1ccc(Cl)c(C(=O)Nc2sc3c(c2C#N)CCCC3)c1	E. multilocularis metacestode vesicles	106.793
CCOC(=O)N[C@@H]1CC[C@@H]2[C@@H](C1)C[C@H]1C(=O)O[C@H](C)[C@H]1[C@H]2/C=C/c1ccc(-c2cccc(F)c2)cn1	E. multilocularis metacestode vesicles	74.5757
COc1ccc(CNC(=O)C(NS(=O)(=O)c2ccc3nc(C)sc3c2)C(C)C)cc1 (stereo not drawn)	E. multilocularis metacestode vesicles	97.8993
O=S(=O)(Nc1ccccc1)c1ccc(NC(=S)Nc2ccccc2)cc1	E. multilocularis metacestode vesicles	118.128
Cc1ncc([N+](=O)[O-])n1CC(O)CN1CCOCC1 (stereo not drawn)	E. multilocularis metacestode vesicles	97.4765
O=C(NO)C1(CS(=O)(=O)c2ccc(Oc3ccc(Cl)cc3)cc2)CCOCC1	E. multilocularis metacestode vesicles	178.089
COC1CC2CCC(C)C(O)(O2)C(=O)C(=O)N2CCCCC2C(=O)OC(C(C)CC2CCC(OCCO)C(OC)C2)CC(=O)C(C)/C=C(\C)C(O)C(OC)C(=O)C(C)CC(C)/C=C/C=C/C=C/1C (stereo not drawn)	E. multilocularis metacestode vesicles	85.7507
Cc1nc(N(C)C(=O)Cc2ccc(-c3ccccn3)cc2)sc1S(N)(=O)=O	E. multilocularis metacestode vesicles	136.799
Cc1ccc(S(=O)(=O)Nc2cccc3cccnc23)cc1	E. multilocularis metacestode vesicles	70.919
CSc1ccc2c(c1)C(N1CCN(C)CC1)Cc1ccccc1S2 (stereo not drawn)	E. multilocularis metacestode vesicles	82.0463
NC(N)=NCCCCC(=O)Nc1cc(C(F)(F)F)cc(NC(=O)c2cc(C(=O)Nc3cc(C(F)(F)F)cc(NC(=O)CCCCN=C(N)N)c3O[C@@H]3CCNC3)ncn2)c1O[C@@H]1CCNC1	E. multilocularis metacestode vesicles	96.1157
Nc1c(C(=O)NCc2ccco2)c2nc3ccccc3nc2n1CCN1CCCCC1	E. multilocularis metacestode vesicles	63.8129
CCCC(=O)OCCc1ccccc1	E. multilocularis metacestode vesicles	64.2092
CCCCc1ccc(S(=O)(=O)Nc2cc(C)on2)cc1	E. multilocularis metacestode vesicles	50.3487
COc1cc(C(C(=O)NC2CCCCC2)N(C(=O)Cc2c[nH]c3ccccc23)c2ccc(C(C)C)cc2)cc(OC)c1OC (stereo not drawn)	E. multilocularis metacestode vesicles	100.386
COc1c(F)c(F)cc2c(=O)c(C(=O)O)cn(C3CC3)c12	E. multilocularis metacestode vesicles	115.193
O[C@@](Cn1cnnn1)(c1ccc(F)cc1F)C(F)(F)c1ccc(-c2ccc(OCC(F)(F)F)cc2)cn1	E. multilocularis metacestode vesicles	107.711
O=C(CC1Sc2ncnn2C1=O)Nc1ccc(Br)cc1 (stereo not drawn)	E. multilocularis metacestode vesicles	47.1606
CCCCCCCCC(CP(=O)(O)C(C)N)C(=O)O (stereo not drawn)	E. multilocularis metacestode vesicles	34.1503
COC(=O)Nc1nc2c(C)cccc2[nH]1	E. multilocularis metacestode vesicles	91.1788

###

Listed here are molecules together with their documented PGI d5 (relative PGI release).
# System: E. multilocularis metacestode vesicles
# PROCEDURE_SUMMARY: Phosphoglucose isomerase (PGI) release assay (damage-marker release) on metacestode vesicles
# Type: cell-based, Echinococcus multilocularis
# DETAILS: overview screen, 10 μM, singlets, 5 days, relative to 0.1 % Triton X-100, DMSO subtracted

MOLECULE	DISPLAY_UNIT	PGI d5 (relative PGI release)
O=C(c1ccccc1)N1CCN(c2ccccc2NC(=O)C(Cl)(Cl)Cl)CC1 [MMV001014]	%	0.3132
Cc1ccc(C)c(OCCCCCCN2C[C@H](O)[C@@H](O)[C@H](O)[C@H]2CO)c1 [MMV1634401]	%	8.592
Cc1ccc(S(=O)(=O)Nc2cccc3cccnc23)cc1 [MMV233495]	%	2.157
O=C(Nc1ccc(F)cc1)c1nn(-c2ccccc2)c(=O)cc1Cl [MMV1578555]	%	4.414
O=C(O)[C@H]1C2CCC(CC2)[C@@H]1Nc1nc(-c2c[nH]c3ncc(F)cc23)ncc1F [MMV1593516]	%	2.198
O=C(CCCC(F)(F)F)N1CCC(c2nc(-c3nccs3)no2)CC1 [MMV1582491]	%	0.6914
O=C(O)COc1cccc2c1CC[C@](O)(COC(=O)N(c1ccccc1)c1ccccc1)C2 [MMV1782352]	%	-0.08001

###

# System: E. multilocularis metacestode vesicles
# PROCEDURE_SUMMARY: Phosphoglucose isomerase (PGI) release assay (damage-marker release) on metacestode vesicles
# Assay type: cell-based, Echinococcus multilocularis
# DETAILS: overview screen, 10 μM, singlets, 5 days, relative to 0.1 % Triton X-100, DMSO subtracted

MOLECULE	TARGET_UNDER_TEST	DISPLAY_UNIT	PGI d5 (relative PGI release)
Nc1nc(Nc2ccc3nc(-c4ccc(F)cc4)cc(N)c3c2)cc(-c2ccccc2)n1 [MMV1593541]	E. multilocularis metacestode vesicles	%	4.554
COc1cc(C(C)(C)CCCC(C)C)cc(OC)c1OC [MMV1782102]	E. multilocularis metacestode vesicles	%	0.2099
NCc1ccc(S(N)(=O)=O)cc1 [MMV002665]	E. multilocularis metacestode vesicles	%	0.8805
COC(=O)Nc1nc2cc(Sc3ccccc3)ccc2[nH]1 [MMV003143]	E. multilocularis metacestode vesicles	%	2.636
C[C@@H](O)[C@H](N)C(=O)NS(=O)(=O)c1cccc(-c2ccc3[nH]ncc3c2)c1.Cl.Cl [MMV1582494]	E. multilocularis metacestode vesicles	%	-2.197
CCCCCCCCC(CP(=O)(O)C(C)N)C(=O)O (centres unmarked) [MMV1582487]	E. multilocularis metacestode vesicles	%	-0.4977
C[C@H]1CC[C@@]2(O)C(C)(C)[C@@H]3CC[C@@]2(C)[C@H]1C3 [MMV1578556]	E. multilocularis metacestode vesicles	%	-0.5138
NC(=O)c1cnccn1 [MMV003249]	E. multilocularis metacestode vesicles	%	1.909
Cc1c(OCC(F)(F)F)ccnc1C[S+]([O-])c1nc2ccccc2[nH]1 (centres unmarked) [MMV001438]	E. multilocularis metacestode vesicles	%	1.578
CCOc1ccc(C(=O)NCCc2ccccc2)cc1 [MMV124656]	E. multilocularis metacestode vesicles	%	-0.3368
CCCCc1ccc(-c2cc(C(=O)O)cc(-c3ccc(Cl)cc3)n2)cc1 [MMV1580852]	E. multilocularis metacestode vesicles	%	-0.3014
CCCCc1ccc(C(=O)O)nc1 [MMV001726]	E. multilocularis metacestode vesicles	%	-0.06574
Cc1cc(C)n(O)c(=O)c1 [MMV1782389]	E. multilocularis metacestode vesicles	%	-2.677
Cc1nc2ccc(Oc3ccccc3)cc2c2c1CCN2CCc1ccccc1 [MMV1634399]	E. multilocularis metacestode vesicles	%	25.5463

###

# Test system: E. multilocularis metacestode vesicles
# PROCEDURE_SUMMARY: Phosphoglucose isomerase (PGI) release assay (damage-marker release) on metacestode vesicles
# Format: cell-based, Echinococcus multilocularis
# DETAILS: overview screen, 10 μM, singlets, 12 days, relative to 0.1 % Triton X-100, DMSO subtracted
Let's look at some compounds and their measured PGI d12 (relative PGI release).
READOUT: PGI d12 (relative PGI release) (%)

COMPOUND	READOUT	NUMBER
CC1(C)Cc2c(C#N)c(SCCc3ccccc3)nc(N3CCOCC3)c2CO1	PGI d12 (relative PGI release)	-14.2052
CC(=O)N1CCN(c2ccc(OC[C@@H]3CO[C@@](Cn4ccnc4)(c4ccc(Cl)cc4Cl)O3)cc2)CC1	PGI d12 (relative PGI release)	-24.3929
O=C(O)C(Cc1c[nH]c2ccccc12)N1C(=O)c2ccccc2C1=O (stereo not drawn)	PGI d12 (relative PGI release)	0.986
O=c1oc2ccc(Br)cc2cc1CSc1ncc[nH]1	PGI d12 (relative PGI release)	-17.9407
Oc1c(C(Nc2ccccn2)c2ccccc2)ccc2cccnc12 (stereo not drawn)	PGI d12 (relative PGI release)	-6.242
OC1O[C@H](CSc2ccc(F)cc2)[C@@H](O)[C@H]1O (stereo partly drawn)	PGI d12 (relative PGI release)	-13.5328
O=C(NCc1ncc(C(F)(F)F)cc1Cl)c1c(Cl)cccc1Cl	PGI d12 (relative PGI release)	-25.1085
COc1c(F)c(F)cc2c(=O)c(C(=O)O)cn(C3CC3)c12	PGI d12 (relative PGI release)	-3.0894
Cl.Cl.NCCCc1ccccc1C(=O)Nc1ncc([N+](=O)O)s1	PGI d12 (relative PGI release)	-16.376
COc1ccc(OCc2ccc(COc3c(Cl)cccc3Cl)cc2)c(Cl)c1	PGI d12 (relative PGI release)	-0.7114
Nc1cccc(-c2nc(N)nc(NC3Cc4ccccc4C3)n2)c1	PGI d12 (relative PGI release)	-5.225
c1ccc(-c2nnc3c4ccccc4c(N4CCNCC4)nn23)cc1	PGI d12 (relative PGI release)	-25.7664
CC(C)C(=O)N[C@H]1[C@H]([C@H](O)[C@H](O)CO)OC(C(=O)O)=C[C@@H]1N=[N+]=[N-]	PGI d12 (relative PGI release)	0.1424
COC(=O)Nc1nc2ccc([S+]([O-])c3ccccc3)cc2[nH]1 (stereo not drawn) [oxfendazole, reference compound]	PGI d12 (relative PGI release)	31.4286
C[C@@H](NC(=O)c1ccccc1-c1ccccc1)B(O)O	PGI d12 (relative PGI release)	35.0936
COc1ccc2sc3c(c2c1)NC(C)CNC3=O (stereo not drawn)	PGI d12 (relative PGI release)	1.77
O=C(O)COc1cccc2c1CC[C@](O)(COC(=O)N(c1ccccc1)c1ccccc1)C2	PGI d12 (relative PGI release)	-0.2818
CC(C)(C)NC(=O)N[C@H](C(=O)N1C[C@H]2[C@@H]([C@H]1C(=O)NC(CC1CCC1)C(=O)C(N)=O)C2(C)C)C(C)(C)C (stereo partly drawn)	PGI d12 (relative PGI release)	69.2218
